# tested.on: hCE2 (Homo sapiens, UniProt O00748)
# Construct: tissue Bioreclamation IVT lot no; X008067; host or cells: pooled human liver microsomes, 50 donors
# protocol.description: hCE2 inhibition assay (FD hydrolysis in human liver microsomes)
# Assay type: biochemical
# measurement.context: FD probe substrate (5 μM), HLM, PBS pH 7.4, 37 °C
endpoint.label: IC50 (µM)

Answered cases to consult:
// IC50 lookup, key: COc1ccc(-c2cc3ccc(OC)c(OC)c3c3[n+]2C(OC)CO3)cc1OCc1ccc(S(C)(=O)=O)cc1 (stereo not shown) [Compound 23e]
11.5

// IC50 lookup, key: COc1ccc(-c2cc3ccc(OC)c(OC)c3c3[n+]2C(OC)CO3)cc1OCc1ccc(-c2ccccc2)cc1 (stereo not shown) [Compound 23l]
2.64

// IC50 lookup, key: COc1ccc(-c2cc3ccc(OC)c(OC)c3c3[n+]2C(OC)CO3)cc1OCc1ccc(C(C)C)cc1 (stereo not shown) [Compound 23n]
1.66

(P) COc1ccc(COc2cc(-c3cc4ccc(OC)c(OC)c4c4[n+]3C(OC)CO4)ccc2OC)cc1 (stereo not shown) [Compound 23d]
(Q) COc1ccc(-c2cc3ccc(OC)c(OC)c3c3[n+]2C(OC)CO3)cc1OCc1ccc(C(C)(C)C)cc1 (stereo not shown) [Compound 23m]
# query: argmin of IC50 over P and Q Pick one; state its label.
Q

(a) COc1ccc(-c2cc3ccc(OC)c(OC)c3c3[n+]2C(OC)CO3)cc1OCc1ccc2cccnc2c1 (stereo not shown) [Compound 23j]
(b) COc1ccc(-c2cc3ccc(OC)c(OC)c3c3[n+]2C(OC)CO3)cc1OCc1ccc(C(F)(F)F)cc1 (stereo not shown) [Compound 23i]
In the pair a and b , the larger recorded IC50 belongs to which? Pick one; state its label.
a

* * *

# tested.on: hCE2 (Homo sapiens, UniProt O00748)
# Construct: tissue Bioreclamation IVT lot no; X008067; host or cells: pooled human liver microsomes, 50 donors
# Sequence (O00748 27-559): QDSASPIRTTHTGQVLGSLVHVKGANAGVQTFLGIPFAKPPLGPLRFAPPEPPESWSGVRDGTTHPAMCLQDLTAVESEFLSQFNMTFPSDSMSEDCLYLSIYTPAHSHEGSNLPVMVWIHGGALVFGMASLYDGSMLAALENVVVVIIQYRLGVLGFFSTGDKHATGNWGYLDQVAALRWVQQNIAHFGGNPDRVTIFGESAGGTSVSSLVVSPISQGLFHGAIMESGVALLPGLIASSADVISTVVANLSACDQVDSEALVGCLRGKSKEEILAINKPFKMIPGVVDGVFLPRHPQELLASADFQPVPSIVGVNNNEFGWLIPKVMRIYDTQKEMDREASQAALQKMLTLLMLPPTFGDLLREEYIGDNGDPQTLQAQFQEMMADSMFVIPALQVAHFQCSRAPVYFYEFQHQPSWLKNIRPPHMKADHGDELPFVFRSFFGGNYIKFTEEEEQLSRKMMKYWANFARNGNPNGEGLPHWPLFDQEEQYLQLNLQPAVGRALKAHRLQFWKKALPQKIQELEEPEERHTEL
# protocol.description: hCE2 inhibition assay (FD hydrolysis in human liver microsomes)
# Type: biochemical
# measurement.context: FD probe substrate (5 μM), HLM, PBS pH 7.4, 37 °C
endpoint.label: IC50 (µM)

Answered cases to consult:
What measured IC50 is associated with COc1ccc(-c2cc3ccc(OC)c(OC)c3c3[n+]2C(OC)CO3)cc1OCc1ccc(C#N)cc1 (stereo not shown) [Compound 23g] on hCE2 (Homo sapiens, UniProt O00748)?
3.33

What measured IC50 is associated with COc1ccc2cc(-c3ccc4c(c3)OCO4)[n+]3c(c2c1OC)OCC3OC (stereo not shown) [Compound 23a] on hCE2 (Homo sapiens, UniProt O00748)?
16

(A) COc1ccc(-c2cc3ccc(OC)c(OC)c3c3[n+]2C(OC)CO3)cc1OCc1ccc([N+](=O)[O-])cc1 (stereo not shown) [Compound 23h]
(B) COc1ccc(-c2cc3ccc(OC)c(OC)c3c3[n+]2C(OC)CO3)cc1OCc1ccc(C)cc1 (stereo not shown) [Compound 23k]
# query: argmin of IC50 over A and B Pick one; state its label.
A
(A: 3.32 µM, B: 5.58 µM)
